tested on: UO-31 renal; experiment: NCI-60 one-dose screen, 48 h (100 = growth as untreated, 0 = no growth, -100 = all killed); conditions: 10 µM unless noted
Compounds without any hit were thinned out: in the full panel of roughly 83,000, 20% have a hit.
As shown below, each of these compounds has a reported growth value.

Compound | Tested On | Unit String | growth
COC(=O)/C(CCC=C(C)C)=C1\[C@@H](OC(C)=O)C[C@@]2(C)[C@H]1C[C@@H](O)[C@H]1[C@@]3(C)CC[C@H](NCCCNCCCCNCCCN)[C@@H](C)[C@@H]3CC[C@@]12C | UO-31 renal | % | 51.7
COc1ccccc1C1=C(Br)C(=O)c2nc(C)ccc2C1=O | UO-31 renal | % | 77.2
Fc1cccc(COc2ccc(Nc3ncnc4onc(-c5ccccc5)c34)cc2)c1 | UO-31 renal | % | 18.6
O=c1[nH]nnc2c1ncn2C1OC(CO)C(O)C1O (centres undefined) | UO-31 renal | % | 36
COc1cccc2c(=O)c3c(sc12)c(NCCCNCCO)nc1ccccc13 | UO-31 renal | % | 27.4
CS(=O)(=O)Nc1ccc(C(=O)NC(C(=O)NO)c2ccc(-c3cccc(F)c3)cc2)cc1 (centres undefined) | UO-31 renal | % | 19.3
Cc1c(-c2noc(-c3ccc([N+](=O)[O-])cc3)n2)no[n+]1[O-] | UO-31 renal | % | 78.4
COc1cc(NC(=O)CCSc2nc3ccccc3c(=O)n2CCc2ccccn2)cc(OC)c1OC | UO-31 renal | % | 85
O=C(NN1C(=O)CSC1c1ccc(Cl)cc1)c1[nH]c2ccc(F)cc2c1-c1ccccc1 (centres undefined) | UO-31 renal | % | 36.3
Cc1[nH]c2ccccc2c(=O)c1CC=C(Cl)Cl | UO-31 renal | % | 20.4
COc1ccc(Cn2c(Br)c3c(c2-c2cc(OC)c(OC)c(OC)c2)CCc2sc(NC(=O)c4ccc(OC)cc4)nc2-3)cc1 | UO-31 renal | % | 47.4
O=c1oc2ccc(-c3ccc(F)cc3F)cc2c(=O)n1-c1ccc(Cl)c(C(F)(F)F)c1 | UO-31 renal | % | 75.6
O=C(/C=C/c1ccccc1)c1ccc(Nc2nc(NCCO)nc(Nc3ccc(Cl)cc3)n2)cc1 | UO-31 renal | % | 66.7
CCN(CC)CCCNc1ccnc2cc3ccccc3cc12 | UO-31 renal | % | 106
Nc1n[nH]c2ccc([C@@H]3Nc4ccc5[nH]ncc5c4[C@H]4[C@H]5CCC(C5)[C@H]43)cc12 | UO-31 renal | % | 46.3
O=c1oc2ccc(Br)cc2c(=O)n1-c1ccc(Br)cc1F | UO-31 renal | % | -19.5
CCN1C(=O)N(CC)C2C1NC(=S)N2/N=C/C=C/c1ccccc1OC (centres undefined) | UO-31 renal | % | 46.3
COc1cc(/C=C2\CN(S(=O)(=O)c3ccccc3)C/C(=C\c3cc(CN4CCCC4)c(O)c(OC)c3)C2=O)cc(CN2CCCC2)c1O | UO-31 renal | % | 34.7
O=C(Nc1ccc(N2CCNCC2)cc1)c1[nH]ncc1Nc1cc(C2CC2)ncn1 | UO-31 renal | % | 34.1

* * *

system: OVCAR-5 ovarian; test: NCI-60 one-dose screen, 48 h (100 = growth as untreated, 0 = no growth, -100 = all killed); conditions: 10 µM unless noted
Compounds without any hit were thinned out: in the full panel of roughly 83,000, 20% have a hit.
Measured growth of individual entries

Molecule | Unit String | growth
COc1ccc(-c2nc(N3CCN(C(=O)C4CCCCC4)CC3)c3c4c(sc3n2)CCCC4)cc1 | % | 35.6
O=C(COc1cc(O)c2c(=O)cc(-c3ccccc3)oc2c1)Nc1ccccc1C(F)(F)F | % | 62.9
Cc1nc(Nc2cn[nH]c2C(=O)Nc2ccc(CN3CCN(C)CC3)cc2)c2ccsc2n1 | % | 136
O=c1oc2ccc(Cl)cc2c(=O)n1-c1ccc(I)cc1F | % | 23.1
Cc1nc2ccccc2c(/C=C/c2ccccc2)c1C(=O)/C=C/c1ccc(Cl)cc1 | % | 14.2
Cc1cc2c(c(C)c1Cl)C(=O)/C(=C/c1ccco1)O2 | % | 114
CC1(C)CC2(C)OC2C2(C1)N=NC(=Nc1ccccc1)O2 (stereo not given) | % | 94.3
FC(F)(F)c1cccc(CNC2CCN(CCc3ccccc3)CC2)c1 | % | 84.6
CC(C)CCOc1ccc(-c2n[nH]c(C(F)(F)F)c2-c2cncc(C#N)c2)c(O)c1 | % | 36.9
O=C(N/N=C/c1ccccc1Cl)C(=O)Nc1cccc(C(F)(F)F)c1 | % | 97.4
